// data source = PubChem BioAssay AID488899

Below, each entry is listed alongside its reported inhibition.
- procedure-summary: MITF transcriptional activity suppression – cell-based, SK-MEL-5, single point, luciferase, primary screen (AID 488899)
- study-conditions: SK-MEL-5 TRPM1 promoter luciferase, 24 h; at 12.5 µM; stronger effect = higher value
Screen size: about 330,000 compounds; about 2,800 (0.85%) were called active. The entries come from a sample that favours actives as a whole.

[
  {
    "compound": "CCc1nc(Nc2ccc(NC(C)=O)cc2)c2oc3ccccc3c2n1",
    "inhibition / %": 5.96
  },
  {
    "compound": "O=C(N/N=C/c1ccccn1)C12CC3CC(CC(C3)C1)C2",
    "inhibition / %": 0.297
  },
  {
    "compound": "O=C(NC(Nc1nc2ccc([N+](=O)[O-])cc2s1)(C(F)(F)F)C(F)(F)F)c1ccccc1",
    "inhibition / %": 70.9
  },
  {
    "compound": "COc1ccc2c(c1)c(=Cc1ccc(N(C)C)cc1)c1cc(-c3ccccc3)[n+](C)n12",
    "inhibition / %": 95.7
  },
  {
    "compound": "CC1CCN(C(=O)c2cccc(S(=O)(=O)N3CCCc4ccccc43)c2)CC1",
    "inhibition / %": 7.39
  },
  {
    "compound": "Cc1n[nH]c(=O)c2c1nnn2Cc1ccc(F)cc1",
    "inhibition / %": 0.048
  },
  {
    "compound": "Cc1cc(C)nc(SCC(=O)N(C)C)n1",
    "inhibition / %": 2.39
  },
  {
    "compound": "CS(=O)(=O)c1ccc2nnn(OCC(=O)Nc3cccc(C#N)c3)c2c1",
    "inhibition / %": 10.8
  },
  {
    "compound": "CN(C)CCNC(=O)Nc1cccc(Cl)c1Cl",
    "inhibition / %": 5.71
  },
  {
    "compound": "Fc1ccccc1/C=N/Nc1cc(N2CCCCC2)ncn1",
    "inhibition / %": -35
  },
  {
    "compound": "CC(=O)NCCNC(=O)c1cc(-c2cccc3ccccc23)nc2ccccc12",
    "inhibition / %": 9.13
  },
  {
    "compound": "NS(=O)(=O)c1ccccc1NC(=O)c1c(O)c2ccccc2[nH]c1=O",
    "inhibition / %": -57.1
  },
  {
    "compound": "CCN(CC)S(=O)(=O)c1ccc(N2CCOCC2)c(NC(=O)c2ccc(=O)n(C)n2)c1",
    "inhibition / %": 2.54
  },
  {
    "compound": "CCCCOc1ccc(C(=O)N/C(=C/C=C/c2ccccc2)C(=O)N2CCOCC2)cc1",
    "inhibition / %": 0.224
  },
  {
    "compound": "O=C(COC(=O)C1CCN(S(=O)(=O)c2ccc3c(c2)OCCO3)CC1)Nc1ccccc1OC(F)F",
    "inhibition / %": -1.73
  },
  {
    "compound": "CCc1ccc2nc(N(CCCN(C)C)C(=O)c3ccc4c(c3)OCCO4)sc2c1",
    "inhibition / %": -67.8
  },
  {
    "compound": "CC1(C)C(=O)C2(CCCCC2)C(=O)OC1c1cccs1 (configuration not stated)",
    "inhibition / %": 4.16
  },
  {
    "compound": "C#CCOCCOCCOCCNc1nc(N2CCOCC2)nc(N2CCN(C(=O)[C@H](Cc3ccc(O)cc3)n3cc(CCO)nn3)CC2)n1",
    "inhibition / %": 4.74
  },
  {
    "compound": "CCN(CC)CCCN=Cc1c(O)n(-c2ccc(C)cc2)c(=O)c2ccccc12",
    "inhibition / %": -6.61
  },
  {
    "compound": "CNN/C(N=Cc1ccc([N+](=O)[O-])s1)=N\\S(=O)(=O)c1cc(C)c(Cl)cc1SCc1ccccc1",
    "inhibition / %": 24.1
  },
  {
    "compound": "CCC(=O)Nc1nnc(S(=O)(=O)N2CCCc3ccccc32)s1",
    "inhibition / %": 5.17
  },
  {
    "compound": "CCOC(=O)N1CCN(C(=O)c2ccc3c(=O)n(CCc4ccc(OC)c(OC)c4)c(=O)[nH]c3c2)CC1",
    "inhibition / %": 2.29
  },
  {
    "compound": "Cc1ccc(NC(=S)NC(NC(=O)Cc2cccc3ccccc23)C(Cl)(Cl)Cl)cc1 (configuration not stated)",
    "inhibition / %": 36
  },
  {
    "compound": "COc1ccc(Cc2n[nH]c(=S)n2NC(=O)Nc2ccc(C)cc2)cc1",
    "inhibition / %": -46.7
  },
  {
    "compound": "CCN(CC)S(=O)(=O)c1cc(C(=O)Nc2cc(S(=O)(=O)N3CCOCC3)ccc2N2CCCC2)ccc1F",
    "inhibition / %": 6.91
  },
  {
    "compound": "CN(C)CCNC(=O)c1ccc(Cl)c2cc3ccccc3nc12",
    "inhibition / %": 74.8
  },
  {
    "compound": "CCOC(=O)C(CO)NC(=O)C1(NC(C)=O)CCCC1 (configuration not stated)",
    "inhibition / %": -14.8
  },
  {
    "compound": "COCCN(Cc1cc2cc3c(cc2nc1Cl)OCO3)C(=O)c1cccc(C)c1",
    "inhibition / %": 10
  },
  {
    "compound": "CCOc1ccc(-n2c(O)c(/C=N/Nc3nc(C)cc(C)n3)c3ccccc3c2=O)cc1",
    "inhibition / %": 67.6
  },
  {
    "compound": "O=C(NNC(=O)c1ccc2ccccc2c1)c1ccc(Cl)cc1",
    "inhibition / %": 10.1
  },
  {
    "compound": "COc1ccc2sc(N(CCCN(C)C)C(=O)c3ccc(S(=O)(=O)N(C)C4CCCCC4)cc3)nc2c1",
    "inhibition / %": 55.2
  },
  {
    "compound": "CCN(CC)S(=O)(=O)c1ccc(N2CCCC2)c(NC(=O)c2ccc([N+](=O)[O-])o2)c1",
    "inhibition / %": 88.5
  }
]
